Tested on: YFV
Type: cell-based, yellow fever virus
MEASUREMENT CONTEXT: Tables 30b, 30k-30o
// log10(EC50) lookup, one value per entry
The common logarithm of EC50 in µM is what is listed.

Reference set (8 entries):
>>> df
                                   compound  result_value
0  C[C@@]1(O)[C@H](O)[C@@H](CO)O[C@H]1n1cnc2c(N)nc(N)nc21         -0.10
1  C[C@@]1(O)[C@H](O)[C@@H](CO)O[C@H]1n1cnc2c(N)ncnc21          0.43
2  C[C@@]1(O)[C@H](O)[C@@H](CO)O[C@H]1n1ccc(=O)[nH]c1=O          2.00
3  CC(C)[C@H](N)C(=O)OC[C@H]1O[C@@H](n2cnc3c(=O)[nH]c(N)nc32)[C@](C)(O)[C@@H]1OC(=O)[C@@H](N)C(C)C          0.00
4  C[C@@]1(O)[C@H](O)[C@@H](CO)O[C@H]1n1cnc2c(=O)[nH]c(N)nc21          0.08
5  C#C[C@@]1(O)[C@H](O)[C@@H](CO)O[C@H]1n1cnc2c(N)ncnc21          0.30
6  C[C@@]1(O)[C@H](O)[C@@H](CO)O[C@H]1n1cnc2c(Cl)nc(N)nc21          0.00
7  C[C@@]1(O)[C@H](O)[C@@H](CO)O[C@H]1n1cnc2c(NC3CC3)nc(N)nc21          1.00

// field: log10(EC50); key: CC(C(=O)c1ccccc1)n1c(N)nc2c(ncn2[C@@H]2O[C@H](CO)[C@@H](O)[C@@]2(C)O)c1=O (stereo partly drawn) ; value = 0.78

----------
Test system: CVB-4
Assay type: cell-based, Coxsackievirus B-4
PROPERTY MEASURED: EC50 (µM)
Response body: numeric value in µM, unit text excluded.

In [3]: df
Out[3]:
                               given_smiles  experimental_system  property_measured  units_text  result_value
0  C#C[C@@]1(O)[C@H](O)[C@@H](CO)O[C@H]1n1ccc(N)nc1=O                CVB-4               EC50          µM            24

// EC50 value for "C[C@@]1(O)[C@H](O)[C@@H](CO)O[C@H]1n1cnc2c(N)ncnc21" : 13

The recorded EC50 for "C[C@@]1(O)[C@H](O)[C@@H](CO)O[C@H]1n1cnc2c(=O)[nH]c(N)nc21" is 12

Noted for "C[C@@]1(O)[C@H](O)[C@@H](CO)O[C@H]1n1cnc2c(N)nc(N)nc21" : its EC50 reads 32

The measured EC50 associated with "C[C@@]1(O)[C@H](O)[C@@H](CO)O[C@H]1n1cnc2c(Cl)nc(N)nc21" reads 25

Reported EC50 for "C#C[C@@]1(O)[C@H](O)[C@@H](CO)O[C@H]1n1cnc2c(N)ncnc21" was 2

Record summary for "Nc1nc(N)c2ncn([C@@H]3O[C@H](CO)[C@@H](O)[C@H]3O)c2n1" : reported EC50 = 50

Measured EC50, "CC(C)[C@H](N)C(=O)OC[C@H]1O[C@@H](n2cnc3c(=O)[nH]c(N)nc32)[C@](C)(O)[C@@H]1OC(=O)[C@@H](N)C(C)C" : 35

----------
Test system: Influenza A/H3N2
ASSAY NOTES: Antiviral activity, Influenza A/H3N2 (MDCK)
Format: cell-based
MEASUREMENT CONTEXT: Influenza A virus
pEC50: −log10 of the molar value.
PROPERTY MEASURED: pEC50

Field pEC50 (entry CC1(O)C(O)C(CO)OC1n1ccc(N)nc1=O (stereo not shown) ) reads < 4.70

----------
Test system: Adenovirus type 1
ASSAY NOTES: Antiviral activity, Adenovirus type 1 (A549)
Format: cell-based
MEASUREMENT CONTEXT: Human mastadenovirus C
pEC50: −log10 of the molar value.
PROPERTY MEASURED: pEC50

Item: CC1(O)C(O)C(CO)OC1n1ccc(N)nc1=O (stereo not shown) | pEC50: < 3.70

----------
System: Sb-1
ASSAY NOTES: organism not typed
Type: cell-based, Sabin type 1 poliomyelitis virus
MEASUREMENT CONTEXT: read-out: EC50 Sb-1
PROPERTY MEASURED: pEC50
Give only the number. pEC50 is defined as minus log10 of concentration in molar units.

                                   compound  experimental_system  property_measured  result_value
0  C[C@@]1(O)[C@H](O)[C@@H](CO)O[C@H]1n1cnc2c(N)nc(N)nc21                 Sb-1              pEC50          4.05
1  C#C[C@@]1(O)[C@H](O)[C@@H](CO)O[C@H]1n1ccc(N)nc1=O                 Sb-1              pEC50          4.59
2  C[C@@]1(O)[C@H](O)[C@@H](CO)O[C@H]1n1cnc2c(Cl)nc(N)nc21                 Sb-1              pEC50          4.30
3  Nc1nc(N)c2ncn([C@@H]3O[C@H](CO)[C@@H](O)[C@H]3O)c2n1                 Sb-1              pEC50          4.40

Next:
Summary for this compound, CC1(O)C(O)C(CO)OC1n1ccc(N)nc1=O (centres unmarked) : pEC50 is 5.22

----------
ASSAY NOTES: Cytotoxicity (cell proliferation) assay, HepG2
MEASUREMENT CONTEXT: human, HepG2 cells
PROPERTY MEASURED: CC50 (µM)
Enter your answer as a number in µM; do not include the unit.

Lab book: CC50 of CC1(O)C(O)C(CO)OC1n1ccc(N)nc1=O (stereo not shown) noted as 200

----------
ASSAY NOTES: in vitro
MEASUREMENT CONTEXT: African green monkey
PROPERTY MEASURED: CC50

Given item CC1(O)C(O)C(CO)OC1n1ccc(N)nc1=O (stereo not shown) , the value recorded as its CC50 is > 100 µM

----------
Examples of compounds with documented pEC50 follow.
Tested on: REO-1
ASSAY NOTES: microbe, parasite or virus in culture
Format: cell-based, double-stranded RNA Reovirus
MEASUREMENT CONTEXT: read-out: REO
Scale for pEC50: -log10 of concentration given in mol/L; no unit attached.

Consider the worked cases shown below.
In [3]: df
Out[3]:
                                   compound  result_value
0  C#C[C@@]1(O)[C@H](O)[C@@H](CO)O[C@H]1n1cnc2c(N)ncnc21 [Compound H, β-D-2′-C-ethynyl-adenosine]          5.22
1  CC(C)[C@H](N)C(=O)OC[C@H]1O[C@@H](n2cnc3c(=O)[nH]c(N)nc32)[C@](C)(O)[C@@H]1OC(=O)[C@@H](N)C(C)C [Compound E]          5.68

Per the record, C[C@@]1(O)[C@H](O)[C@@H](CO)O[C@H]1n1cnc2c(=O)[nH]c(N)nc21 [Compound C, β-D-2′-C-methyl-guanosine] has pEC50 of 5.70

// pEC50 lookup, compound = CC(C(=O)c1ccccc1)n1c(N)nc2c(ncn2[C@@H]2O[C@H](CO)[C@@H](O)[C@@]2(C)O)c1=O (stereo partly drawn) [Compound L] , result: 4.92

----------
Test system: VEE
ASSAY NOTES: microbe, parasite or virus in culture
Type: cell-based
MEASUREMENT CONTEXT: Venezuelan equine encephalitis virus, Vero
pEC50: −log10 of the molar value.
PROPERTY MEASURED: pEC50

The molecule CC1(O)C(O)C(CO)OC1n1ccc(N)nc1=O (stereo not shown) showed pEC50 equal to 4.35 to 5.89

----------
Test system: BHK
Friendly reminder: CC50 below 50 µM is label 1, at or above is label 0.

>>> df
                               given_smiles      cat
0  C#C[C@@]1(O)[C@H](O)[C@@H](CO)O[C@H]1n1ccc(N)nc1=O  label 0

# TODO verify CC50 < 50 µM strictly for this compound: "C[C@@]1(O)[C@H](O)[C@@H](CO)O[C@H]1n1cnc2c(=O)[nH]c(N)nc21"
label 0

Lab log: compare recorded CC50 with 50 µM; is it strictly lower for "C[C@@]1(O)[C@H](O)[C@@H](CO)O[C@H]1n1cnc2c(N)ncnc21" ?
label 0

# strict comparison: is reported CC50 < 50 µM? input = "C#C[C@@]1(O)[C@H](O)[C@@H](CO)O[C@H]1n1cnc2c(N)ncnc21"
label 1

Please check: CC50 for "Nc1nc(N)c2ncn([C@@H]3O[C@H](CO)[C@@H](O)[C@H]3O)c2n1" , strictly under 50 µM or not?
label 0

Does the reported CC50 of the following compound sit strictly below 50 µM? "CC(C)[C@H](N)C(=O)OC[C@H]1O[C@@H](n2cnc3c(=O)[nH]c(N)nc32)[C@](C)(O)[C@@H]1OC(=O)[C@@H](N)C(C)C"
label 0

Below 50 µM on CC50? Entry "C[C@@]1(O)[C@H](O)[C@@H](CO)O[C@H]1n1cnc2c(Cl)nc(N)nc21"
label 1

Recorded values, source patent US7625875B2.
